# Test system: Escherichia coli D21f2tolC
# MEASUREMENT DESCRIPTION: microbe, parasite or virus in culture
# REPORTED CONDITIONS: 16 h, read-out: MIC E. coli D21f2tolC, Mueller-Hinton II agar, 16 h at 37° C.
METRIC NAME: MIC (µg/mL)
State just the number; it will be interpreted in µg/mL.

Value of measured MIC for the entry Cc1cc(Oc2ccccc2)ccc1C1CC1C(=O)c1c(O)cc(O)cc1O (stereo not shown) [Example 39] : 1.6

Value of measured MIC for the entry CCC1=C(O)C(CC)(CC)C(=O)C(C(=O)C2CC2c2ccc(C(F)(F)F)cc2C(F)(F)F)=C1O (stereo not shown) [Example 87] : 3.2

Value of measured MIC for the entry O=C(/C=C/c1ccc(Oc2ccccc2)cc1)c1c(O)cc(O)cc1O [Example 8] : 3.8

Value of measured MIC for the entry CCCC1(CCC)C(=O)C(C(=O)C2CC2c2ccc(Oc3ccccc3)cc2)=C(O)C=C1O (stereo not shown) [Example 60] : 3.9
